- Tested on: Rtkn
- Test Description: ToxTracker genotoxicity assay, Rtkn-GFP reporter
- Test Conditions: Without S9 rat liver extract, at 25% cytotoxicity, 24 h exposure
Experimental Endpoint: Rtkn GFP reporter induction level
No unit in the answer, only the number.

| Compound | Study System | Rtkn GFP reporter induction level |
| --- | --- | --- |
| CCCCCCCCCC(=O)OCC(CN1CC1C)OC(=O)NCCCCCCn1c(=O)n(CCCCCCNC(=O)OC(COC(=O)CCCCCCCCC)CN2CC2C)c(=O)n(CCCCCCNC(=O)OC(COC(=O)CCCCCCCCC)CN2CC2C)c1=O (stereo not shown) | Rtkn | 1.2 |

Item: CCCCOCC(CN1CC1C)OC(=O)NCCCCCCn1c(=O)n(CCCCCCNC(=O)OC(COCCCC)CN2CC2C)c(=O)n(CCCCCCNC(=O)OC(COCCCC)CN2CC2C)c1=O (stereo not shown) | Rtkn GFP reporter induction level: 0.8

Item: CC(CN1CC1C)OC(=O)NCCCCCCn1c(=O)n(CCCCCCNC(=O)OC(C)CN2CC2C)c(=O)n(CCCCCCNC(=O)OC(C)CN2CC2C)c1=O (stereo not shown) | Rtkn GFP reporter induction level: 1.2

Item: CCCCOCC(CN1CC1(C)C)OC(=O)NCCCCCCn1c(=O)n(CCCCCCNC(=O)OC(COCCCC)CN2CC2(C)C)c(=O)n(CCCCCCNC(=O)OC(COCCCC)CN2CC2(C)C)c1=O (stereo not shown) | Rtkn GFP reporter induction level: 1.2

----------
- Tested on: Rtkn
- Test Description: ToxTracker genotoxicity assay, Rtkn-GFP reporter
- Test Conditions: Without S9 rat liver extract, at 50% cytotoxicity, 24 h exposure
Experimental Endpoint: Rtkn GFP reporter induction level

Would you please look over these solved cases?
| Molecule | Rtkn GFP reporter induction level |
| --- | --- |
| CCCCOCC(CN1CC1(C)C)OC(=O)NCCCCCCn1c(=O)n(CCCCCCNC(=O)OC(COCCCC)CN2CC2(C)C)c(=O)n(CCCCCCNC(=O)OC(COCCCC)CN2CC2(C)C)c1=O (stereo not shown) | 1.2 |
| CC(CN1CC1C)OC(=O)NCCCCCCn1c(=O)n(CCCCCCNC(=O)OC(C)CN2CC2C)c(=O)n(CCCCCCNC(=O)OC(C)CN2CC2C)c1=O (stereo not shown) | 1.4 |
| CCCCCCCCCC(=O)OCC(CN1CC1C)OC(=O)NCCCCCCn1c(=O)n(CCCCCCNC(=O)OC(COC(=O)CCCCCCCCC)CN2CC2C)c(=O)n(CCCCCCNC(=O)OC(COC(=O)CCCCCCCCC)CN2CC2C)c1=O (stereo not shown) | 1.0 |

Please examine the following record next.
Observed Rtkn GFP reporter induction level, Rtkn, CCCCOCC(CN1CC1C)OC(=O)NCCCCCCn1c(=O)n(CCCCCCNC(=O)OC(COCCCC)CN2CC2C)c(=O)n(CCCCCCNC(=O)OC(COCCCC)CN2CC2C)c1=O (stereo not shown) : 0.6

----------
- System: Rtkn
- Test Description: ToxTracker genotoxicity assay, Rtkn-GFP reporter
- Test Conditions: With S9 rat liver extract, at 25% cytotoxicity, 3 h exposure and 24 h recovery
Listing of entries alongside the reported Rtkn GFP reporter induction level.
No unit in the answer, only the number.

Would you please look over these solved cases?
| Compound | Rtkn GFP reporter induction level |
| --- | --- |
| CCCCOCC(CN1CC1(C)C)OC(=O)NCCCCCCn1c(=O)n(CCCCCCNC(=O)OC(COCCCC)CN2CC2(C)C)c(=O)n(CCCCCCNC(=O)OC(COCCCC)CN2CC2(C)C)c1=O (stereo not shown) | 1.2 |
| CCCCOCC(CN1CC1C)OC(=O)NCCCCCCn1c(=O)n(CCCCCCNC(=O)OC(COCCCC)CN2CC2C)c(=O)n(CCCCCCNC(=O)OC(COCCCC)CN2CC2C)c1=O (stereo not shown) | 0.8 |
| CCCCCCCCCC(=O)OCC(CN1CC1C)OC(=O)NCCCCCCn1c(=O)n(CCCCCCNC(=O)OC(COC(=O)CCCCCCCCC)CN2CC2C)c(=O)n(CCCCCCNC(=O)OC(COC(=O)CCCCCCCCC)CN2CC2C)c1=O (stereo not shown) | 1.1 |

Please examine the following record next.
Observed Rtkn GFP reporter induction level, Rtkn, CC(CN1CC1C)OC(=O)NCCCCCCn1c(=O)n(CCCCCCNC(=O)OC(C)CN2CC2C)c(=O)n(CCCCCCNC(=O)OC(C)CN2CC2C)c1=O (stereo not shown) : 1.1
